Molecular target: mouse CD38 (Mus musculus)
Sequence (P56528 whole entry): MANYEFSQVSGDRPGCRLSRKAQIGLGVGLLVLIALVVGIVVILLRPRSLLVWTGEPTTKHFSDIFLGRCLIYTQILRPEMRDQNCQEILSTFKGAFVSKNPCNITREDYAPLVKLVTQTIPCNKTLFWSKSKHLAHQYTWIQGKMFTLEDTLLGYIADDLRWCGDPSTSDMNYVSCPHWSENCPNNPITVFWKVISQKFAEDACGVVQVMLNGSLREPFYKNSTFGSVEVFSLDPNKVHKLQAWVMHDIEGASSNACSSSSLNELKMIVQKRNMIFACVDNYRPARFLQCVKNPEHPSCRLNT
Test: NAD+ cyclase activity assay with mouse recombinant CD38 protein (ε-NAD fluorescence)
Conditions: 0.6 nM mouse CD38, substrate ε-NAD, 30 min preincubation, fluorescence 300/410 nm
The entries below are paired with their reported IC50.

[
  {
    "molecule": "COC(C)(C)CO[C@H]1CC[C@H](NC(=O)c2ccc3c(c2)-c2cncn2CCO3)CC1 [Compound 127A]",
    "IC50": "1 to 10 nM"
  },
  {
    "molecule": "O=C(Nc1ccc2c(c1)CCO2)c1ccc2c(c1)-c1cncn1CCO2 [Compound 9A]",
    "IC50": "1 to 10 nM"
  },
  {
    "molecule": "C[C@H]1CCCC[C@@H]1NC(=O)c1cc(F)c2c(c1)-c1cncn1CCO2 (relative stereo) [Compound 174A]",
    "IC50": "< 1 nM"
  },
  {
    "molecule": "CCC(O)(CN[C@H]1CC[C@H](NC(=O)c2ccc3c(c2)-c2cncn2CCO3)CC1)C(F)(F)F (some centres unmarked) [Compound 131A]",
    "IC50": "< 1 nM"
  },
  {
    "molecule": "O=C(N[C@H]1CC[C@@H](OC2CC(F)(F)C2)CC1)c1cc(F)c2c(c1)-c1cncn1CCO2 [Compound 167A]",
    "IC50": "10 to 100 nM"
  },
  {
    "molecule": "COCCNc1nc2cc(NC(=O)c3ccc4c(c3)-c3cncn3CCO4)ccc2s1 [Compound 48A]",
    "IC50": "1 to 10 nM"
  },
  {
    "molecule": "CC(C)(CO[C@H]1CC[C@@H](NC(=O)c2cc(F)c3c(c2)-c2cncn2CCO3)CC1)C(F)(F)F [Compound 168A]",
    "IC50": "> 100 nM"
  },
  {
    "molecule": "O=C(N[C@@H]1CCS(=O)(=O)C1)c1cc(F)c2c(c1)-c1cncn1CCO2 [Compound 132A]",
    "IC50": "1 to 10 nM"
  },
  {
    "molecule": "CS(=O)(=O)CCN[C@H]1CC[C@H](NC(=O)c2ccc3c(c2)-c2cncn2CCO3)CC1 [Compound 106A]",
    "IC50": "1 to 10 nM"
  },
  {
    "molecule": "O=C(NC1CCC(F)(F)CC1)c1ccc2c(c1)-c1cncn1CCO2 [Compound 5A]",
    "IC50": "< 1 nM"
  },
  {
    "molecule": "O=C(NC1CCC(F)(F)CC1)c1cc(F)c2c(c1)-c1cncn1CCO2 [Compound 73A]",
    "IC50": "< 1 nM"
  },
  {
    "molecule": "CNc1nc2ccc(C(=O)N[C@@H]3CCCOC3)cc2n2cncc12 [Compound 28A]",
    "IC50": "1 to 10 nM"
  },
  {
    "molecule": "COCCO[C@H]1CC[C@H](NC(=O)c2ccc3c(n2)-n2cncc2CCO3)CC1 [Compound 70A]",
    "IC50": "10 to 100 nM"
  },
  {
    "molecule": "CS(=O)(=O)c1cccc(NC(=O)c2ccc3c(c2)-c2cncn2CCO3)c1 [Compound 18A]",
    "IC50": "< 1 nM"
  },
  {
    "molecule": "O=C(Nc1ccc2ncsc2c1)c1ccc2c(c1)-c1cncn1CCO2 [Compound 41A]",
    "IC50": "1 to 10 nM"
  },
  {
    "molecule": "O=C(Nc1ccc2c(c1)OCC2)c1ccc2c(c1)-c1cncn1CCO2 [Compound 32A]",
    "IC50": "1 to 10 nM"
  },
  {
    "molecule": "CS(=O)(=O)c1cncc(NC(=O)c2ccc3c(c2)-c2cncn2CCO3)c1 [Compound 22A]",
    "IC50": "1 to 10 nM"
  }
]
